Reference source: the OligoGym collection

TESTED ON: TERF1
RUN PARAMETERS: ASO; further: test concentration or dose not given here
These antisense oligonucleotides have a phosphorothioate backbone; sugars and methylation of C are not fully specified.
Friendly reminder: remaining target (mRNA or protein) (fraction of control) below 0.8 is True, at or above is False.

# SEQUENCE INPUT, CATEGORY LABEL
rows = [
    ("GCCATGTTAAATGGCTCGAT", "True"),
    ("TTTTACAAACACAATCAGTC", "True"),
    ("AAACACAATCAGTCTTCGCT", "False"),
    ("ATATTAAATGAAGGTATCAG", "False"),
    ("CATCCTCCGCCATGTTAAAT", "True"),
    ("GGCAGGTTTGTTAGCTGAGT", "False"),
    ("ACACAATCAGTCTTCGCTGT", "True"),
    ("AAGCTTTTACAAACACAATC", "False"),
    ("GCAGGGTTCAACAAATTTAC", "True"),
    ("ACAATCAGTCTTCGCTGTCT", "True"),
    ("TAAGAAAAGATTCTTGTGAG", "True"),
    ("CCAAATCATCAGGGCTGATT", "False"),
    ("TTTAGACCAGTTTCCCTCTC", "True"),
    ("TTTGTCCCATGGGTAATACT", "False"),
    ("AATCAGTCTTCGCTGTCTGA", "False"),
]

###

The entries below come with measured remaining target (mRNA or protein) (fraction of control) values attached.
TESTED ON: E2F1
RUN PARAMETERS: ASO
These antisense oligonucleotides have a phosphorothioate backbone; sugars and methylation of C are not fully specified.
READOUT LABEL: remaining target (mRNA or protein) (fraction of control)

# SEQUENCE INPUT, NUMERIC VALUE
records = [
    ("CTCCCTCACTTTCCCAATAA", 0.71),
    ("TCTGCGAGGAGTCGAGCAGC", 0.79),
    ("CACCCAGGCCTCAGTTCCTT", 0.92),
    ("TGAAAGTTCTCCGAAGAGTC", 0.56),
    ("TGCACACACAGAGGTGTATG", 0.27),
    ("TACTCTGGAAACCCTGGTCC", 0.75),
    ("ACACCACACAGACTCCTTCC", 0.6),
    ("TAGCCAGACCCCAGAGCTAG", 0.46),
    ("GCCACTGGATGTGGTTCTTG", 0.94),
    ("GTGTGGGTGTAGGCTGCATG", 0.76),
    ("CAGCTGCTGCTCGCTCTCCT", 0.63),
    ("TCAGCCGAGTGGCTCAGCAG", 0.91),
    ("CAGGCGGCGGCGGCGGCGCG", 0.82),
    ("TATTAAAACCAAAGCAGGAG", 0.69),
    ("ATGAGCTGGATGCCCTCAAG", 0.56),
    ("GCCGACGCCCACTGTGGTGT", 0.45),
]

###

TESTED ON: PTPN11
RUN PARAMETERS: ASO
These antisense oligonucleotides have a phosphorothioate backbone; sugars and methylation of C are not fully specified.
Output: class label from remaining target (mRNA or protein) (fraction of control). Mapping: lower bin: < 0.4; middle bin: ≥ 0.4 and < 0.5; upper bin: ≥ 0.5

# SEQUENCE INPUT, CATEGORY LABEL
rows = [
    ("TTGATGTGGGTGACAGCTCC", "middle bin"),
    ("AAGAATATCAATCACAATGA", "upper bin"),
    ("TCTCCGCGATGTCATGTTCC", "middle bin"),
    ("TTCTTCCCAAAAGCCTTGTT", "upper bin"),
    ("TTTAAATGGTTTCAAATTTT", "upper bin"),
    ("TCAACCACATTGCAAGCCTT", "lower bin"),
    ("AAAGTCATTCACCGTGTTTT", "upper bin"),
    ("ACATAAACTTTCTTGCGTCT", "upper bin"),
    ("ACACCAGTGATATTTGGGTG", "upper bin"),
    ("TTCCATGTAATACTGGACCA", "lower bin"),
    ("GAAAGAACAAAATCTCCAGG", "upper bin"),
    ("ATCTATTTCTGTGCTGAAGT", "upper bin"),
]

###

RUN PARAMETERS: ASO
These antisense oligonucleotides have a phosphorothioate backbone; sugars and methylation of C are not fully specified.
The entries below come with measured remaining target (mRNA or protein) (fraction of control) values attached.
READOUT LABEL: remaining target (mRNA or protein) (fraction of control)

# SEQUENCE INPUT, VALUE QUALIFIER, NUMERIC VALUE
data = [
    ("AGCTCCCTTCTTACTCCC", "=", 0.69),
    ("GTGGAGTGCATAAGAGGCCA", "=", 0.84),
    ("ATTTCTCTCGTCCGCAAA", "=", 0.34),
    ("GGCAAGGCTTGAGTGCTG", "=", 0.42),
    ("CCACCGCCGCCGCCGCTG", "=", 0.62),
    ("GGCTGCTGAGAATCTGAA", "=", 0.78),
    ("AAATAGGTAGCCAGGTGG", "=", 0.99),
    ("CGCATGGACACGAAGATG", "≥", 1),
    ("GATGGGGGTGGTGGAGTGCA", "=", 0.75),
    ("AGCGCCACACGCGACAGTAA", "=", 0.56),
    ("GCTTCCTGTCCATCACTG", "=", 0.71),
    ("TGCGCTCCTCCTCCGAGT", "≥", 1),
    ("TCTCCTCCAGGCACTGGT", "=", 0.18),
    ("AGAGGCAGAGAAGAGAGC", "=", 0.93),
    ("GGTGGTGGAGTGCATAAGAG", "=", 0.98),
    ("GGCGGCCTTCTCATCCTC", "=", 0.96),
    ("GGCTCAGAAGGACTTCCTGG", "=", 0.65),
]

###

TESTED ON: TNFRSF1A
RUN PARAMETERS: ASO
These antisense oligonucleotides have a phosphorothioate backbone; sugars and methylation of C are not fully specified.
The entries below come with measured remaining target (mRNA or protein) (fraction of control) values attached.
READOUT LABEL: remaining target (mRNA or protein) (fraction of control)

# SEQUENCE INPUT, VALUE QUALIFIER, NUMERIC VALUE
data = [
    ("GCAGCCCAGCAGGTCCAT", "=", 0.68),
    ("CACCAGCGGCAGCAGCAG", "=", 0.79),
    ("GTCCAGGCAGAGGGCACA", "=", 0.79),
    ("CATTTCCTTTCGGCATTT", "=", 0.87),
    ("TATATTCCCACCAACAGC", "=", 0.75),
    ("TCCAGGCTTTTCTTACAG", "≥", 1),
    ("GTTAGCACCAAGTAGGCG", "=", 0.89),
    ("GCAGCAGCAGGTCAGGCA", "=", 0.63),
    ("ACAAAACAAAACAAAACA", "=", 0.73),
    ("TGAGGGTTGAGACTCGGG", "=", 0.98),
    ("CAGGAGCACCAGCGGCAG", "=", 0.54),
    ("TTGGGCTCAGGGCAGTGT", "≥", 1),
    ("AGACTCGGGCATAGAGAT", "≥", 1),
    ("GGTGACAGTTGAGGGTTG", "=", 0.92),
    ("TCTGAAGCGGTGAAGGAG", "≥", 1),
    ("ATAGCGTCCCTCATCCTC", "=", 0.66),
    ("GCTCCTGCTTGCCCCTGC", "=", 0.57),
    ("TGAAGGTGGAACTGGGCA", "=", 0.73),
    ("ATCCTCGCAAACCACCCA", "=", 0.71),
    ("CGCAAAGTTGGGACAGTC", "=", 0.7),
    ("AGGAGGGATAAAAGGCAA", "=", 0.78),
    ("CTACAGGAGACACACTCG", "=", 0.72),
    ("GCAGGTCAGGCACGGTGG", "=", 0.84),
    ("CAATGAAGAGGAGGGATA", "=", 0.79),
    ("ACAGTTGAGGGTTGAGAC", "=", 0.7),
    ("AGGGCAGTGTGGCAGCGG", "=", 0.47),
    ("TCCTCCAGGCAGCCCAGC", "=", 0.59),
    ("TGCCTTAGGACAGTTCAG", "=", 0.8),
    ("TCGTGGTCGCTCAGCCCT", "=", 0.72),
    ("GGTACTGGTTCTTCCTGC", "=", 0.86),
    ("GTCAGGCACGGTGGAGAG", "≥", 1),
    ("CATTTGGGCTCAGGGCAG", "=", 0.91),
    ("AGCTGGAGGTGAAGGTGG", "≥", 1),
    ("AGCTGAGGCAGTGTCTGA", "=", 0.73),
    ("CACCTGACCCATTTCCTT", "=", 0.54),
]
